B1: VDR (parent)
chain: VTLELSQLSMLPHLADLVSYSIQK

- Variants of: B1
- ASSAY_NOTES: protein stability index of a GFP-peptide fusion (GPS, HEK-293T) (PSI 1-6); higher = more stable;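 also: lentivirally expressed fusions sorted by FACS into six bins by GFP to DsRed ratio, PSI derived from sequencing read proportions per bin multiplied by bin number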
- EXPERIMENTAL_PARAMETERS: c terminus: a fixed tail appended
# maps each entry to its protein stability index
MEASURE: protein stability index

chain=VTLELSQLSMLPHLADLVSASIQK observed_value=1.94
chain=VLLELSQLSMLPHLADLVSYSIQK observed_value=1.75
chain=VMLELSQLSMLPHLADLVSYSIQK observed_value=2.16
chain=ATLELSQLSMLPHLADLVSYSIQK observed_value=1.63
chain=VTLELSQLSMLRHLADLVSYSIQK observed_value=3.79
chain=VTLELSQLSMLPHLMDLVSYSIQK observed_value=2.78
chain=VTLELSQLSMLPHLADLVMYSIQK observed_value=3.08
chain=VTLELSQLSMLPHLADLVSFSIQK observed_value=2.41
chain=VTCELSQLSMLPHLADLVSYSIQK observed_value=1.99
chain=VTLELSQLSMLPHLADLLSYSIQK observed_value=3.33
chain=VTLELSQLSMLPHLADPVSYSIQK observed_value=2.77
chain=VTLELSWLSMLPHLADLVSYSIQK observed_value=2.56
chain=VILELSQLSMLPHLADLVSYSIQK observed_value=4.5
chain=VTLELSQLSMLPHVADLVSYSIQK observed_value=3.03
chain=VTLELSQLSMLPHLADLVSYVIQK observed_value=3.87
chain=VNLELSQLSMLPHLADLVSYSIQK observed_value=3.11
chain=VTLELSQLSMLNHLADLVSYSIQK observed_value=2.22
chain=VTLELSQLSMLPHLADLVSYIIQK observed_value=1.89
chain=VTLELSQLSMLPHFADLVSYSIQK observed_value=2.69
chain=VTLELKQLSMLPHLADLVSYSIQK observed_value=1.81
chain=VTNELSQLSMLPHLADLVSYSIQK observed_value=1.5
chain=VTLELSQLSMLSHLADLVSYSIQK observed_value=2.38
chain=VTLECSQLSMLPHLADLVSYSIQK observed_value=2.54
chain=VTLELSQLSMLPHLADLVSYSFQK observed_value=2.12
chain=VTLELSQLSMLLHLADLVSYSIQK observed_value=3.04
chain=VTAELSQLSMLPHLADLVSYSIQK observed_value=2.21
chain=VTQELSQLSMLPHLADLVSYSIQK observed_value=1.96
chain=VTLELLQLSMLPHLADLVSYSIQK observed_value=3.3
chain=VTLELSQLSMNPHLADLVSYSIQK observed_value=1.71
chain=VTLELSQLSMLPYLADLVSYSIQK observed_value=2.58
chain=VTLELSQLSMKPHLADLVSYSIQK observed_value=3.55
chain=VTLELSQLSMLPHLADLVSYSIQP observed_value=2.95
chain=VTLELSQLSMLPHLADLVSYQIQK observed_value=1.43
chain=VTLELSQLSMLPHLADLVDYSIQK observed_value=2.27
chain=VTLELSQLSMLPHHADLVSYSIQK observed_value=2.6
chain=VTLELSQLSMLPHLTDLVSYSIQK observed_value=2.83
chain=VKLELSQLSMLPHLADLVSYSIQK observed_value=2.4
chain=VTLELSQLSMLPHLADMVSYSIQK observed_value=2.75
chain=VTLEVSQLSMLPHLADLVSYSIQK observed_value=2.65
chain=VTLELSQLSMEPHLADLVSYSIQK observed_value=1.52
chain=HTLELSQLSMLPHLADLVSYSIQK observed_value=2.44
chain=VTLELSQLSMLPGLADLVSYSIQK observed_value=2.52
chain=VTLELSQLSMLPHLADLVSYSCQK observed_value=4.35
chain=VTLEPSQLSMLPHLADLVSYSIQK observed_value=1.86
chain=NTLELSQLSMLPHLADLVSYSIQK observed_value=1.81
chain=VTLELSQLSMWPHLADLVSYSIQK observed_value=2.6
chain=VTLELSQLSMLPHLADLVSYSIQI observed_value=4.63
chain=VTLELSQLSMLPHLADLWSYSIQK observed_value=3.29
chain=VTLELSQLSMLPMLADLVSYSIQK observed_value=4.11
chain=VTLELSQLSMIPHLADLVSYSIQK observed_value=3.11
chain=VTLELSQLSMLPHLADLVSGSIQK observed_value=2.73
chain=VTLELSQLSMLPHLADVVSYSIQK observed_value=1.66
chain=VTLELSQMSMLPHLADLVSYSIQK observed_value=3.27
chain=VTEELSQLSMLPHLADLVSYSIQK observed_value=1.84
chain=VTLELSQLSMLIHLADLVSYSIQK observed_value=3.14
chain=VTLELSQLSMLPHLADNVSYSIQK observed_value=1.77
chain=VTLEASQLSMLPHLADLVSYSIQK observed_value=2.12
chain=VTLESSQLSMLPHLADLVSYSIQK observed_value=1.92
chain=VTLELSQLSMLPHLADLVSYSDQK observed_value=2.23
chain=TTLELSQLSMLPHLADLVSYSIQK observed_value=3
chain=VTLELSQLSMLPHLADLVSYSIQM observed_value=3.28
chain=VTHELSQLSMLPHLADLVSYSIQK observed_value=1.6
chain=VTLELSQLSMLDHLADLVSYSIQK observed_value=3.28
chain=VTLELSQLSMLPHLADLVSYSIQG observed_value=2.79
chain=VTLELNQLSMLPHLADLVSYSIQK observed_value=2.58
chain=VTLLLSQLSMLPHLADLVSYSIQK observed_value=4.64
chain=QTLELSQLSMLPHLADLVSYSIQK observed_value=2.66
chain=VTLELSQLSMLPHLADLVSMSIQK observed_value=2.91
chain=VTLELSQYSMLPHLADLVSYSIQK observed_value=2.47
chain=VTLELSQLLMLPHLADLVSYSIQK observed_value=2.79
chain=VTLELSQLSMLPHLADLVSYFIQK observed_value=3.64
chain=VTLELSQLSMLPHTADLVSYSIQK observed_value=2.12
chain=VTLELSQLSMLPHLADHVSYSIQK observed_value=1.98
chain=VTLELSQLSMLPHLAMLVSYSIQK observed_value=3.71
chain=VTLELSQNSMLPHLADLVSYSIQK observed_value=2.35
chain=GTLELSQLSMLPHLADLVSYSIQK observed_value=2.5
chain=VTLELSQLSMLPHLADLVSYSIQD observed_value=3.06
chain=VTLELSQLSMLPHLGDLVSYSIQK observed_value=2.59
chain=RTLELSQLSMLPHLADLVSYSIQK observed_value=3.03
chain=VTLELSQLSMLPHLADLVSYKIQK observed_value=2.89
chain=VTLELSQLSMLPHLADLFSYSIQK observed_value=3.13
chain=VTLELSQLKMLPHLADLVSYSIQK observed_value=3.79
chain=VTLELYQLSMLPHLADLVSYSIQK observed_value=2.27
chain=VTLELSQLSMLPHLADLVSYSIQE observed_value=3.5
chain=VTLELSQLSMLPHNADLVSYSIQK observed_value=1.61
chain=VTLELSQLSMLPHLADLVSYSVQK observed_value=4.61
chain=VTLELSQLSMLPHLADLQSYSIQK observed_value=2.76
chain=VTLELSQESMLPHLADLVSYSIQK observed_value=1.65
chain=VTLKLSQLSMLPHLADLVSYSIQK observed_value=3.75
chain=VTLELSQLSMLVHLADLVSYSIQK observed_value=2.61
chain=VTLELSQLSQLPHLADLVSYSIQK observed_value=2.65
